- STUDY TARGET: UniProt L7N0P5
- Sequence (L7N0P5 as listed by the source): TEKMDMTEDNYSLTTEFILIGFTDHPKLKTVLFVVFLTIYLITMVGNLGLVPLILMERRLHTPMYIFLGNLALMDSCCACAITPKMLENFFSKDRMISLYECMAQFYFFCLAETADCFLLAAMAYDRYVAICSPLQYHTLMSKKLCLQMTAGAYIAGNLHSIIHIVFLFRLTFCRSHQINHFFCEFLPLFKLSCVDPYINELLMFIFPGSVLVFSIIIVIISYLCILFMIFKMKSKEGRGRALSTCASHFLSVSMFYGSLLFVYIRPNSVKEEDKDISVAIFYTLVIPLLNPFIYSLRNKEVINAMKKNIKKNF
- COND: stereoisomer not certain
Labels: active, inactive

                                   molecule       cat
 0                             CCc1nccnc1OC    active
 1  COC1=C(C)OC(C)C1=O (stereo unspecified)  inactive
 2                             Cc1cnc(C)cn1    active
 3                             Cc1cncc(C)n1    active
 4     CC1=NC(C)C(C)S1 (stereo unspecified)    active
 5                         CCc1cnc(C)c(C)n1  inactive
 6                          CCc1ncc(C)nc1CC    active
 7                              CCc1nccnc1C    active
 8                               Cc1nccnc1C    active
 9      CC1CCc2nccnc21 (stereo unspecified)    active
10                           CC(=O)c1cnccn1    active

---

- STUDY TARGET: OR5M10 (Homo sapiens) (UniProt Q6IEU7)
- Sequence (whole entry): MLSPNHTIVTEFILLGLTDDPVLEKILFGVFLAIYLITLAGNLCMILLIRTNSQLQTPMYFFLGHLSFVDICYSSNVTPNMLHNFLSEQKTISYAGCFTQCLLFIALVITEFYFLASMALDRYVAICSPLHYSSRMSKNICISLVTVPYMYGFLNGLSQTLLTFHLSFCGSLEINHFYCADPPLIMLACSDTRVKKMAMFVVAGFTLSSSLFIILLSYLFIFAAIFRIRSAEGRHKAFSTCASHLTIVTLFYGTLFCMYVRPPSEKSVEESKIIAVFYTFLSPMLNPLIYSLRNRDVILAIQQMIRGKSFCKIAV
- COND: stereoisomer not certain
QUANTITY: odorant receptor agonist call

>>> print(df.to_string())
                                   molecule                       quantity  data_value
0         CCCCC(S)C(C)CO (stereo not drawn)  odorant receptor agonist call    inactive
1  CC1CCCCCCCCCCCCC(=O)C1 (stereo not drawn)  odorant receptor agonist call    inactive
2           CCC(S)C(C)CO (stereo not drawn)  odorant receptor agonist call    inactive

---

- STUDY TARGET: UniProt Q8VF06
- Sequence (Q8VF06 as listed by the source): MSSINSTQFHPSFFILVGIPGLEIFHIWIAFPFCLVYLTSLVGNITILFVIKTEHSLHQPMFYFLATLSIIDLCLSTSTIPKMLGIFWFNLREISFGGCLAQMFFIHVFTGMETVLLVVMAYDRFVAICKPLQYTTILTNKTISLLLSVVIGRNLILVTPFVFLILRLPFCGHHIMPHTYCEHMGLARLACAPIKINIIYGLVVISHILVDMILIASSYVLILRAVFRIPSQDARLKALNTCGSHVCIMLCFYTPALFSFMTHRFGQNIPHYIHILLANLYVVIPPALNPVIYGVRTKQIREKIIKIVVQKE
- COND: stereoisomer not certain
QUANTITY: odorant receptor agonist call

>>> df
         molecule_smiles                       quantity  data_value
0  CCCCCCCC(=O)[O-].[H+]  odorant receptor agonist call      active
1             CCCCCCCCCO  odorant receptor agonist call    inactive
2             CCCCC(=O)O  odorant receptor agonist call    inactive
3              CCCC(C)=O  odorant receptor agonist call    inactive
4           CCCCCCCCCCCO  odorant receptor agonist call      active
5                CCCCCCO  odorant receptor agonist call    inactive
6  O=C(O)CCCCCCCCCC(=O)O  odorant receptor agonist call    inactive
7                CCCCC=O  odorant receptor agonist call    inactive

Source listed as the M2OR odorant receptor database.
